# Experimental target: Sigma non-opioid intracellular receptor 1 (Cavia porcellus)
# Protocol text: Inhibitory activity against opioid receptor sigma 1 in guinea pig cerebral cortex using [3H](+)-pentazocine as radio ligand at pH 7.5 for 150 min at 22 degree C
pIC50: −log10 of the molar value.
Metric: pIC50

>  <Compound string>
CN(CCCn1c(O)c2n(c1=O)Cc1ccccc1C2)CCc1ccccc1

>  <Readout value>
8.68

$$$$

1: CN(CCc1ccccc1)CCn1c(O)c2n(c1=O)Cc1ccccc1C2
2: CN(CCn1c(O)c2n(c1=O)Cc1ccccc1C2)Cc1ccccc1
3: O=c1n(CCCN2CCN(Cc3ccc4c(c3)OCO4)CC2)c(O)c2n1Cc1ccccc1C2
Asked: List items by pIC50 in falling order. The response must list the labels following the requested ordering.
Given back: 2, 1, 3
(2: 8.35, 1: 7.90, 3: 7.62)

I: CN(CCCc1ccccc1)CCn1c(O)c2n(c1=O)Cc1ccccc1C2
II: O=c1n(CCCNC2CCN(Cc3ccccc3)CC2)c(O)c2n1Cc1ccccc1C2
Asked: API: POST /compare with I and II ; response names the item with higher pIC50. Reply briefly: the label of your chosen item.
Given back: I

1: CN(CCCCCCn1c(O)c2n(c1=O)Cc1ccccc1C2)Cc1ccccc1
2: CN(CCCCCn1c(O)c2n(c1=O)Cc1ccccc1C2)Cc1ccccc1
Asked: Returns: the label, 1 or 2 , whose recorded pIC50 is the lower number. Your answer should be the label attached to the chosen record.
Given back: 1
(1: 8.03, 2: 8.30)

I: O=c1n(CCCNCc2ccccc2)c(O)c2n1Cc1ccccc1C2
II: CN(CCCCn1c(O)c2n(c1=O)Cc1ccccc1C2)Cc1ccccc1
Asked: Look at I and II . Which one has the lower recorded pIC50 number? In your reply, give the label of the chosen option.
Given back: I
(I: 8.02, II: 8.38)
